Hey, just so you know, these numbers are from the supplement of paper PMC10567573.

B1: STK38L (parent)
chain: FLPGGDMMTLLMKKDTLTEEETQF

variants of: B1; test: protein stability index of a GFP-peptide fusion (GPS, HEK-293T) (PSI 1-6); higher = more stable; conditions: c terminus: a fixed tail appended;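 further: lentivirally expressed fusions sorted by FACS into six bins by GFP to DsRed ratio, PSI derived from sequencing read proportions per bin multiplied by bin number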
Readings of protein stability index for the listed variants
Write the value as a bare number.

// known answers, use as guide
Mutation Id: M7N
protein stability index: 3.05

Mutation Id: G5F
protein stability index: 2.84

Mutation Id: L10P
protein stability index: 3.9

Mutation Id: L10V
protein stability index: 2.98

Mutation Id: G5K
protein stability index: 4.21

Mutation Id: M12Q
protein stability index: 3.25

Mutation Id: K14L
protein stability index: 1.89

Mutation Id: K13T
protein stability index: 2.69

Problem: So what does the record say about protein stability index for K13E ?
Result: 3.03

Problem: Looking for the measured protein stability index of T18G , can you help?
Result: 2.01

Problem: What does the record list as protein stability index for M7T ?
Result: 3.87

Problem: Field request: protein stability index | item: M7L
Result: 2.43

Problem: // protein stability index lookup, key: M8W
Result: 1.44

Problem: Recorded protein stability index for M7D , please?
Result: 4.85

Problem: Entry L10K : reported protein stability index = ?
Result: 3.11

Problem: Returns the measured protein stability index for the input variant. Input: D6N
Result: 2.69

Problem: Can you share its protein stability index? I mean this variant: D15T
Result: 1.86

Problem: Query: protein stability index; subject: D15I
Result: 1.75

Problem: protein stability index for D15K ?
Result: 1.66

Problem: Please report the recorded protein stability index for M8F .
Result: 1.84
